Listed here are compounds together with their documented SHP2% degradation.
Molecular target: SHP2 protein (Homo sapiens, UniProt Q06124)
Sequence (Q06124 1-593): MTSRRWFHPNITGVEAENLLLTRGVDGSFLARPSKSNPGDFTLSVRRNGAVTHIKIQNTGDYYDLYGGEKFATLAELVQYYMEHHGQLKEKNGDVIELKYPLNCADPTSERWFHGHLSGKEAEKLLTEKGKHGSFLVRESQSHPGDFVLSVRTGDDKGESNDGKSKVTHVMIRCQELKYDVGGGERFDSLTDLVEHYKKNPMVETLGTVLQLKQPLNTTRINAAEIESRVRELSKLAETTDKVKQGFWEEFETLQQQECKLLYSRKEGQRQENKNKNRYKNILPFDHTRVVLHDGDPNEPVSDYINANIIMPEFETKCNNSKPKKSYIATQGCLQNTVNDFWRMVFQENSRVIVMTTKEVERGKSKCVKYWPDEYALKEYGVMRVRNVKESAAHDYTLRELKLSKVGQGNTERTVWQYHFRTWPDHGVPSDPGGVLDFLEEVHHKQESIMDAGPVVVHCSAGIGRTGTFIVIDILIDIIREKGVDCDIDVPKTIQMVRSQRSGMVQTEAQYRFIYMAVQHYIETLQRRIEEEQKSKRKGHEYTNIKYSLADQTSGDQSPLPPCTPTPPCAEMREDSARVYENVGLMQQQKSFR
Test: Measurement of SHP2 protein degradation in MV-4-11 cells (western blotting)
Format: cell-based
Design: endogenous in cells
Settings: 0.01 μM, harvested after 24 hours
ENDPOINT_NAME: SHP2% degradation (%)

{"MOLECULAR_STRING": "Cc1ncsc1-c1ccc(CNC(=O)[C@@H]2C[C@@H](O)CN2C(=O)[C@@H](NC(=O)C2(F)CC2)C(C)(C)C)c(OC2CCN(C(=O)C3(O)CCN(c4nccc(Sc5cnc(N6CCC(C)(CN)CC6)cn5)c4Cl)CC3)CC2)c1", "MEASURED_VALUE": 84.5}
{"MOLECULAR_STRING": "Cc1ncsc1-c1ccc(CNC(=O)[C@@H]2C[C@@H](O)CN2C(=O)[C@@H](NC(=O)C2(F)CC2)C(C)(C)C)c(O[C@H]2CC[C@H](C(=O)N3CC(Nc4cccc(Sc5cnc(N6CCC7(CC6)CO[C@@H](C)[C@H]7N)cn5)c4Cl)C3)CC2)c1", "MEASURED_VALUE": 93.8}
{"MOLECULAR_STRING": "Cc1ncsc1-c1ccc(CNC(=O)[C@@H]2C[C@@H](O)CN2C(=O)[C@@H](NC(=O)C2(F)CC2)C(C)(C)C)c(OC2CCN(C(=O)[C@H]3CC[C@H](Nc4nccc(Sc5cnc(N6CCC(C)(CN)CC6)cn5)c4Cl)CC3)CC2)c1", "MEASURED_VALUE": 75.6}
{"MOLECULAR_STRING": "Cc1ncsc1-c1ccc(CNC(=O)[C@@H]2C[C@@H](O)CN2C(=O)[C@@H](NC(=O)C2(F)CC2)C(C)(C)C)c(OCCN2CCC(C(=O)N3CC(Nc4cccc(Sc5cnc(N6CCC(C)(CN)CC6)cn5)c4Cl)C3)CC2)c1", "MEASURED_VALUE": 67.3}
